- MEASUREMENT TARGET: CYP2C19 (Homo sapiens)
- Sequence (P33261 whole entry): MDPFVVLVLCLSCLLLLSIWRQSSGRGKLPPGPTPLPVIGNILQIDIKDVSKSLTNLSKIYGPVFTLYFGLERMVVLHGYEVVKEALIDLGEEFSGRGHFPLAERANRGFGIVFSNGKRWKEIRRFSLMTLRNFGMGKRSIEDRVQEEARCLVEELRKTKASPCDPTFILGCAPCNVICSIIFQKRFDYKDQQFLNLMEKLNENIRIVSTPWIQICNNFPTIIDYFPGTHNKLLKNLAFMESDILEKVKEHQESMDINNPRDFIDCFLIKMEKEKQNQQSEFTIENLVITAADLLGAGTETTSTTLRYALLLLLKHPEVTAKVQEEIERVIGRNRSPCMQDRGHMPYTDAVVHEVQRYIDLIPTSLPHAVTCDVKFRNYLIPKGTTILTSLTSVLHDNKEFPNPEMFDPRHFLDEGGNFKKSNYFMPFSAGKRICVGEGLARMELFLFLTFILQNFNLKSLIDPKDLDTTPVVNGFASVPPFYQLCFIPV
OUTCOME MEASURE: IC50

Ask: Form: Entry = C[C@@]1(c2cc(NC(=O)c3ncc(C#N)cc3F)ccc2F)C=COC(N)=N1 | System = CYP2C19 (Homo sapiens) | IC50 = ____
Reply: > 20 µM

----------
- MEASUREMENT TARGET: CYP1A2 (Homo sapiens)
- Sequence (P05177 whole entry): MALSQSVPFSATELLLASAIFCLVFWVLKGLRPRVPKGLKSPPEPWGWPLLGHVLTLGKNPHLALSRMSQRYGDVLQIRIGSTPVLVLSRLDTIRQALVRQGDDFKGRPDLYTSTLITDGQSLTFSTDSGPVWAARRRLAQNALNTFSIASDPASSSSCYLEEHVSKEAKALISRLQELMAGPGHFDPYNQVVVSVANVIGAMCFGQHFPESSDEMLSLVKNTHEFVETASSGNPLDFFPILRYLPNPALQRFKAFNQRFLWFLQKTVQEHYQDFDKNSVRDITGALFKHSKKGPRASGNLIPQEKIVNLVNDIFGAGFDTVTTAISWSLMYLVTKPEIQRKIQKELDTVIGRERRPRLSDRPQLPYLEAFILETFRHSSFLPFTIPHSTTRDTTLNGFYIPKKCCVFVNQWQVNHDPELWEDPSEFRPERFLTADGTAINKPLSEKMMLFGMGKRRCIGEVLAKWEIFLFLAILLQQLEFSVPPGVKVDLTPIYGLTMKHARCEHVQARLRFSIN
pIC50: −log10 of the molar value.
OUTCOME MEASURE: pIC50

Ask: I have this compound here, C[C@@]1(c2cc(NC(=O)c3ncc(C#N)cc3F)ccc2F)C=COC(N)=N1 [Compound I-9] , and I need its recorded pIC50.
Reply: < 4.70

----------
- MEASUREMENT TARGET: Recombinant human BACE1 (Homo sapiens)
- Sequence (P56817 46-501): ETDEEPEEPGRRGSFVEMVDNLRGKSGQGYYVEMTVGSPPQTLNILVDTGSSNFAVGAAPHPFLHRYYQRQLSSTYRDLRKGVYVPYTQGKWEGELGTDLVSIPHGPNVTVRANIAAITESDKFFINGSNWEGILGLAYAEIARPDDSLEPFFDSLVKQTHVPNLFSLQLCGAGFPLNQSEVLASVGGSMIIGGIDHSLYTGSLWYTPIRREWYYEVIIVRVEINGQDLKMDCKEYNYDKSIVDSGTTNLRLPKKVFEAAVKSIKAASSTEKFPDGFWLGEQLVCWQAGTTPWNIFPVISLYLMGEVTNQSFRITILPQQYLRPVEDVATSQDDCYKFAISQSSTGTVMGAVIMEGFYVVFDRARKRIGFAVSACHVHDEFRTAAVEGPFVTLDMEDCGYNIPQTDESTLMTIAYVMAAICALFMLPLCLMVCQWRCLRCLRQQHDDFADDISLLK
- PROCEDURE DETAILS: Assay of BACE1 inhibiting activity
- ASSAY CONTEXT: Recombinant human BACE1 7.4 nmol/L, substrate peptide 18 nmol/L, pH 5.0, 30° C., 3.5 hours; read-out: 50% inhibitory concentration against the enzymatic activity (IC50)
OUTCOME MEASURE: IC50

Recorded IC50, per entry:
>>> test_result("C[C@@]1(c2cc(NC(=O)c3ccc(C#N)cn3)ccc2F)C=C(CO)OC(N)=N1 [Compound I-4]")
"10.6 nM"
>>> test_result("C[C@@]1(c2cc(NC(=O)c3cnc(OC(F)F)cn3)ccc2F)C=COC(N)=N1 [Compound I-8]")
"10.3 nM"
>>> test_result("C[C@@]1(c2cc(NC(=O)c3ccc(C#N)cn3)ccc2F)C=C(C(F)F)OC(N)=N1 [Compound I-2]")
"5.3 nM"

Next compound, IC50 to be filled in.
Ask: I have this compound here, CC1=C[C@@](C)(c2cc(NC(=O)c3ccc(C#N)cn3)ccc2Cl)N=C(N)O1 [Compound I-11] , and I need its recorded IC50.
Reply: 64 nM

----------
- MEASUREMENT TARGET: CYP2D6 (Homo sapiens)
- Sequence (P10635 whole entry): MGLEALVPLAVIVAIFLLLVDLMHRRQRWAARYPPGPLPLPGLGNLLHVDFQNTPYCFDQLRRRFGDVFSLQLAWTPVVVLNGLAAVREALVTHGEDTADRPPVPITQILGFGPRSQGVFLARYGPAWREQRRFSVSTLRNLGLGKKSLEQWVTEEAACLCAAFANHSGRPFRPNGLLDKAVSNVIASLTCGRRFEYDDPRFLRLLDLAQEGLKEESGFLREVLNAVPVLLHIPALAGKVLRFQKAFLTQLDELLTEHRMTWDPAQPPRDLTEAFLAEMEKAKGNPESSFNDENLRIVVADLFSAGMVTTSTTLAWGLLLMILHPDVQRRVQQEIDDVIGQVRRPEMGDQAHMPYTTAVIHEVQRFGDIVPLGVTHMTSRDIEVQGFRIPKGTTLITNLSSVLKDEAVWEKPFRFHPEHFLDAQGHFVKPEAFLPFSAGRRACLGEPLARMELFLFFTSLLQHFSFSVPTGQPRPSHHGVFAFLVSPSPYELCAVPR
pIC50: −log10 of the molar value.
OUTCOME MEASURE: pIC50

Ask: Form: Entry = C[C@@]1(c2cc(NC(=O)c3ncc(C#N)cc3F)ccc2F)C=COC(N)=N1 | System = CYP2D6 (Homo sapiens) | pIC50 = ____
Reply: < 4.70
